Provenance of the data: patent US20180155427A1

Molecular target: T1, human PD-1 expressed on cells (human, UniProt Q15116 25-288)
T1 construct: whole, on cells; Treated as one molecule; also called PD-1 expressing Jurkat cells; human PD-1 transfected Jurkat cells
T1 sequence (Q15116 25-288): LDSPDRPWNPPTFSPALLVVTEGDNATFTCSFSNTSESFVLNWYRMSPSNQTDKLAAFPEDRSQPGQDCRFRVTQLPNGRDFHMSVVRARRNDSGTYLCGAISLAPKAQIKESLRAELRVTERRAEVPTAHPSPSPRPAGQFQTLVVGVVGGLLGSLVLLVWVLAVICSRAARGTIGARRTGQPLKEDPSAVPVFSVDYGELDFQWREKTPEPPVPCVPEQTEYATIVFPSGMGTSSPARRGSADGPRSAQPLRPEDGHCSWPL
Assay: rank among the 16 humanized clones in competition with Alexa 488-labeled murine mAb BAP049 on PD-1-expressing 300.19 cells, second experiment
experimental.endpoint: Competition Binding 2nd exp. (rank)

Query: Fill in the blank: the reported Competition Binding 2nd exp. (rank) of humanized mAb BAP049-hum05 (antibody, human IgG4 S228P, kappa, V domains shown, Human IgG4(S228P), human kappa; tested as concentrated supernatant of transiently transfected CHO cells; also called Clone No. 05) VH: EVQLVQSGAEVKKPGESLRISCKGSGYTFTTYWMHWVRQATGQGLEWMGNIYPGTGGSNFDEKFKNRVTITADKSTSTAYMELSSLRSEDTAVYYCTRWTTGTGAYWGQGTTVTVSS VL: EIVLTQSPATLSLSPGERATLSCKSSQSLLDSGNQKNFLTWYQQKPGKAPKLLIYWASTRESGVPSRFSGSGSGTDFTFTISSLQPEDIATYYCQNDYSYPYTFGQGTKVEIKR is ____.
Result: > 4
